assay: Inhibition of forskolin-stimulated glycogenolysis in SK-HEP-1 cells; assay type: functional, cell-based; conditions: Homo sapiens, SK-HEP1
pIC50: −log10 of the molar value.
# key: entry, value: pIC50
parameter: pIC50

1. CN(C)C(=O)[C@H](O)[C@H](Cc1ccccc1)NC(=O)c1cc2cc(F)ccc2[nH]1 ... 5.21
2. COC(=O)[C@H](O)[C@H](Cc1ccccc1)NC(=O)c1cc2cc(Cl)ccc2[nH]1 ... 4.89
3. O=C(N[C@@H](Cc1ccccc1)C(=O)N1CCC(O)CC1)c1cc2cc(Cl)ccc2[nH]1 ... 5.29
4. CNC(=O)[C@@H](Cc1ccccc1)NC(=O)c1cc2cc(Cl)ccc2[nH]1 ... 4.92

---

Molecular target: Glycogen phosphorylase, liver form (Homo sapiens, UniProt P06737)
Sequence (P06737 whole entry): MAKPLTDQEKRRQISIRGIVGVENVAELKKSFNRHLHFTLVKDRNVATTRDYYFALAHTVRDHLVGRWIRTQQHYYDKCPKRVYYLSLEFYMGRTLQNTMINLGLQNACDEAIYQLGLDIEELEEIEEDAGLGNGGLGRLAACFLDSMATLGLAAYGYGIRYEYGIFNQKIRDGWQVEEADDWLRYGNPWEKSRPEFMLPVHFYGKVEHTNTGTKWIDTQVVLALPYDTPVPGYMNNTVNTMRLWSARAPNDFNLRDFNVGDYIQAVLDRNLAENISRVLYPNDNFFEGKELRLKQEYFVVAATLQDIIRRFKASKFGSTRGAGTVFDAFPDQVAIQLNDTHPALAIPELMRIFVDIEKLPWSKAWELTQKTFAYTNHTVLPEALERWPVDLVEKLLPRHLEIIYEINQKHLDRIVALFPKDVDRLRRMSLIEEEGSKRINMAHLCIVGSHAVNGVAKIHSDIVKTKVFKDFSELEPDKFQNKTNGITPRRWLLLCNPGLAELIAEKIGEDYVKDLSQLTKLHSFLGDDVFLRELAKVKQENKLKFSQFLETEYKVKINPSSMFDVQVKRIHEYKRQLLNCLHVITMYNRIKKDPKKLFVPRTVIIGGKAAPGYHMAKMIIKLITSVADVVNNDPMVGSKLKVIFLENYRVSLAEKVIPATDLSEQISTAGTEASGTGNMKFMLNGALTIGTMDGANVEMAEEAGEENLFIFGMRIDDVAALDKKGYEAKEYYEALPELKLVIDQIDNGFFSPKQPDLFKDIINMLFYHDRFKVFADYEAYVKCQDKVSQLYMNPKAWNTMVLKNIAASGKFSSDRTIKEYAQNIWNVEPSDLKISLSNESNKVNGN
Experiment: In vitro inhibitory activity against recombinant human liver glycogen phosphorylase a (rHLGPa) catalyzed release of phosphate from glucose-1-phosphate.
Entries are sorted into classes by IC50 as follows: class 1: < 0.2 µM; class 2: ≥ 0.2 µM and < 2 µM; class 3: ≥ 2 µM

1. CN(C)C(=O)[C@H](O)[C@H](Cc1ccccc1)NC(=O)c1cc2cc(F)ccc2[nH]1 ... class 1
2. COc1ccc2[nH]c(C(=O)N[C@@H](Cc3ccccc3)C(=O)N(C)C)cc2c1 ... class 3
3. CN(C)C(=O)[C@@H](Cc1ccccc1)NC(=O)c1cc2cc(Cl)ccc2[nH]1 ... class 2
4. O=C(N[C@@H](Cc1ccccc1)[C@@H](O)CO)c1cc2cc(Cl)ccc2[nH]1 ... class 3
5. COC(=O)[C@H](Cc1ccccc1)NC(=O)c1cc2cc(Cl)ccc2[nH]1 ... class 1
6. COC(=O)[C@H](O)[C@H](Cc1ccccc1)NC(=O)c1cc2cc(Cl)ccc2[nH]1 ... class 2
7. CN(C)C(=O)[C@@H](O)[C@H](Cc1ccccc1)NC(=O)c1cc2cc(Cl)ccc2[nH]1 ... class 3
8. CN(C)C(=O)[C@H](Cc1ccccc1)NC(=O)c1cc2cc(Br)ccc2[nH]1 ... class 1
9. O=C(N[C@H](CO)Cc1ccccc1)c1cc2cc(Cl)ccc2[nH]1 ... class 3
10. CN(C)C(=O)[C@H](O)[C@H](Cc1ccccc1)NC(=O)c1cc2cc(Cl)ccc2[nH]1 ... class 1
11. O=C(N[C@@H](Cc1ccccc1)[C@@H](O)C(=O)O)c1cc2cc(Cl)ccc2[nH]1 ... class 2
12. CNC(=O)[C@H](Cc1ccccc1)NC(=O)c1cc2cc(Cl)ccc2[nH]1 ... class 1
13. CN(C)C(=O)[C@H](O)[C@H](Cc1ccccc1)NC(=O)c1cc2ccccc2[nH]1 ... class 2
14. CNC(=O)[C@@H](Cc1ccccc1)NC(=O)c1cc2cc(Cl)ccc2[nH]1 ... class 2
15. CN(C)C(=O)[C@H](Cc1ccccc1)NC(=O)c1cc2cc(F)ccc2[nH]1 ... class 2
16. CNC(=O)[C@H](O)[C@H](Cc1ccccc1)NC(=O)c1cc2cc(Cl)ccc2[nH]1 ... class 2
17. CN(C)C(=O)[C@H](Cc1ccccc1)NC(=O)c1cc2ccccc2[nH]1 ... class 2
18. O=C(N[C@@H](Cc1ccccc1)C(=O)N1CCC(O)CC1)c1cc2cc(Cl)ccc2[nH]1 ... class 2
19. CN(C)C(=O)[C@H](O)[C@H](CC1CCCCC1)NC(=O)c1cc2cc(Cl)ccc2[nH]1 ... class 3
20. CN(C)C(=O)[C@H](O)[C@H](Cc1ccccc1)NC(=O)c1cc2cc(Br)ccc2[nH]1 ... class 1
21. CN(C)C(=O)[C@@H](O)[C@@H](Cc1ccccc1)NC(=O)c1cc2cc(Cl)ccc2[nH]1 ... class 2
22. NC(=O)[C@H](O)[C@H](Cc1ccccc1)NC(=O)c1cc2cc(Cl)ccc2[nH]1 ... class 2
23. CN(C)C(=O)[C@H](O)[C@@H](Cc1ccccc1)NC(=O)c1cc2cc(Cl)ccc2[nH]1 ... class 2
24. CN(C)C(=O)[C@H](Cc1ccccc1)NC(=O)c1cc2cc(Cl)ccc2[nH]1 ... class 1
25. O=C(N[C@@H](Cc1ccccc1)C(=O)O)c1cc2cc(Cl)ccc2[nH]1 ... class 2
